- tested target: HIV protease (Human immunodeficiency virus type 1 group M subtype B, UniProt P04585)
- Construct: an HIV-encoded enzyme known as HIV protease
- test description: biochemical
- particulars: recombinant HIV protease; decapeptide substrate; HPLC assay; read-out: IC50 (concentration causing 50% inhibition of HIV protease)
quantity: pIC50
// field semantics: pIC50 = negative decimal log of concentration (mol/L)

Solved entries:
compound | pIC50
CCC(CC)NC(=O)C[C@@H](C(=O)NC[C@@H](O)[C@H](Cc1ccccc1)NC(=O)[C@@H](NC(=O)COc1ccccc1)[C@@H](C)O)C(C)(C)C [Entry 41] | 8.52
Cc1ccc(C)c(C(=O)N[C@@H](Cc2ccccc2)[C@H](O)CNC(=O)[C@H](CC(=O)Nc2c(C)cccc2C)C(C)(C)C)c1 [Entry 74] | 8.70
CCC(CC)NC(=O)C[C@@H](C(=O)NC[C@@H](O)[C@H](Cc1ccccc1)NC(=O)[C@H](CC(N)=O)NC(=O)OCCc1ccccc1)C(C)(C)C [Entry 40] | 8.40

Prompt line: Kindly state the measured pIC50 obtained for CCC(CC)NC(=O)C[C@@H](C(=O)NC[C@@H](O)[C@H](Cc1ccccc1)NC(=O)COc1c(C)cccc1C)C(C)(C)C [Entry 71] with HIV protease (Human immunodeficiency virus type 1 group M subtype B, UniProt P04585).
Response line: 8.46

Prompt line: # iterate: Cc1cccc(C)c1NC(=O)C[C@@H](C(=O)NC[C@@H](O)[C@H](Cc1ccccc1)NC(=O)[C@@H](NC(=O)c1ccc2ccccc2n1)[C@@H](C)O)C(C)(C)C [Entry 46]
Response line: 8.70

Prompt line: # iterate: CCC(CC)NC(=O)C[C@@H](C(=O)NC[C@@H](O)[C@H](Cc1ccccc1)NC(=O)[C@H](CC(N)=O)NC(=O)CCN1CCCCC1)C(C)(C)C [Entry 3]
Response line: 7.06

Prompt line: # iterate: CCC(CC)NC(=O)C[C@@H](C(=O)NC[C@@H](O)[C@H](Cc1ccccc1)NC(=O)[C@H](CC(N)=O)NC(=O)NCc1ccccc1)C(C)(C)C [Entry 14]
Response line: 7.96

Prompt line: # iterate: CCC(CC)NC(=O)CC(C(=O)NC[C@@H](O)[C@H](Cc1ccccc1)NC(=O)[C@H](CC(N)=O)NC(=O)OCc1ccccc1)C(C)(C)C (stereo partly drawn) [Entry 49]
Response line: 7.89

Prompt line: # iterate: CCC(CC)NC(=O)C[C@@H](C(=O)NC[C@@H](O)[C@H](Cc1ccccc1)NC(=O)COc1c(C)cc(C)cc1C)C(C)(C)C [Entry 70]
Response line: 8.34

* * *

Parameter: log10 IC50. Scope: all listed entries.
- tested target: HIV protease (Human immunodeficiency virus type 1 group M subtype B)
- Construct: an HIV-encoded enzyme known as HIV protease
- test description: biochemical
- particulars: recombinant HIV protease; decapeptide substrate; HPLC assay; read-out: IC50 (concentration causing 50% inhibition of HIV protease)
Units before log transform: nM; reported quantity: IC50; transform: log10.

Solved entries:
compound | log10 IC50
CCC(CC)NC(=O)C[C@@H](C(=O)NC[C@@H](O)[C@H](Cc1ccccc1)NC(=O)[C@H](CC(N)=O)NC(=O)CCCCc1ccccc1)C(C)(C)C | 1.11
CC(C)[C@H](NC(=O)OCc1ccccc1)C(=O)N[C@@H](Cc1ccccc1)[C@H](O)CNC(=O)C1CCCCC1C(=O)NCC(C)(C)C (stereo partly drawn) | 1.82
CCC(CC)NC(=O)C1CCCCC1C(=O)NC[C@@H](O)[C@H](Cc1ccccc1)NC(=O)[C@@H](NC(=O)OCc1ccccc1)C(C)C (stereo partly drawn) | 1.15
CCC(CC)NC(=O)C(CC(=O)NC[C@@H](O)[C@H](Cc1ccccc1)NC(=O)[C@@H](NC(=O)OCc1ccccc1)C(C)C)CC(C)(C)C (stereo partly drawn) | 1.70

Alright, here's another compound for you.
Prompt line: For the compound shown here, CCC(CC)OC(=O)C[C@@H](C(=O)NC[C@@H](O)[C@H](Cc1ccccc1)NC(=O)[C@H](CC(N)=O)NC(=O)c1ccc2ccccc2n1)C(C)(C)C , give the reported log10 IC50.
Response line: 0.85

* * *

- tested target: HIV protease (Human immunodeficiency virus type 1 group M subtype B)
- Construct: an HIV-encoded enzyme known as HIV protease
- test description: biochemical
- particulars: recombinant HIV protease; decapeptide substrate; HPLC assay; read-out: IC50 (concentration causing 50% inhibition of HIV protease)
pIC50: −log10 of the molar value.
pIC50 of 8 or higher: Y. Under 8: N.

chemical string | group label
CCC(CC)NC(=O)C[C@@H](C(=O)NC[C@@H](O)[C@H](Cc1ccccc1)NC(=O)[C@H](CC(N)=O)NC(=O)c1cc2ccccc2cn1)C(C)(C)C | Y
CCC(CC)NC(=O)C[C@@H](C(=O)NC[C@@H](O)[C@H](Cc1ccccc1)NC(=O)[C@@H](NC(=O)OC(C)(C)C)C(C)(C)C)C(C)(C)C | N
CCC(CC)NC(=O)C[C@@H](C(=O)NC[C@@H](O)[C@H](Cc1ccccc1)NC(=O)[C@@H](NC(=O)c1ccc2ccccc2n1)[C@@H](C)C(=O)O)C(C)(C)C | Y

Prompt line: pIC50 >= 8 for CCC(CC)NC(=O)C[C@@H](C(=O)NC[C@@H](O)[C@H](Cc1ccccc1)NC(=O)[C@H](CC(N)=O)NC(=O)c1cc(OC)c2ccccc2n1)C(C)(C)C ?
Response line: Y

* * *

Parameter: IC50. Scope: all listed entries.
- tested target: HIV protease (Human immunodeficiency virus type 1 group M subtype B, UniProt P04585)
- Construct: an HIV-encoded enzyme known as HIV protease
- test description: biochemical
- particulars: recombinant HIV protease; decapeptide substrate; HPLC assay; read-out: IC50 (concentration causing 50% inhibition of HIV protease)
Write the value in nM as a bare number.

Prompt line: For the compound shown here, CCC(CC)OC(=O)CC(C(=O)NC[C@@H](O)[C@H](Cc1ccccc1)NC(=O)[C@H](CC(N)=O)NC(=O)OCc1ccccc1)C(C)(C)C (stereo partly drawn) [Entry 47] , give the reported IC50.
Response line: 51

Prompt line: # iterate: Cc1cccc(C)c1NC(=O)C[C@@H](C(=O)NC[C@@H](O)[C@H](Cc1ccccc1)NC(=O)OCc1ccccc1)C(C)(C)C [Entry 72]
Response line: 3

Prompt line: # iterate: CCC(CC)NC(=O)CC(C(=O)NC[C@@H](O)[C@H](Cc1ccccc1)NC(=O)[C@H](CC(N)=O)NC(=O)c1ccc2ccccc2n1)C(C)(C)C (stereo partly drawn) [Entry 52]
Response line: 6

* * *

- tested target: HIV protease (Human immunodeficiency virus type 1 group M subtype B, UniProt P04585)
- Construct: an HIV-encoded enzyme known as HIV protease
- test description: biochemical
- particulars: recombinant HIV protease; decapeptide substrate; HPLC assay; read-out: IC50 (concentration causing 50% inhibition of HIV protease)
quantity: IC50

Solved entries:
chemical string | tested target | IC50
CCC(CC)NC(=O)C[C@@H](C(=O)NC[C@@H](O)[C@H](Cc1ccccc1)NC(=O)[C@H](CC(N)=O)NC(=O)C=Cc1ccccc1)C(C)(C)C | HIV protease (Human immunodeficiency virus type 1 group M subtype B, UniProt P04585) | 7 nM
CCC(CC)NC(=O)C[C@@H](C(=O)NC[C@@H](O)[C@H](Cc1ccccc1)NC(=O)[C@H](CC#N)NC(=O)c1ccc2ccccc2n1)C(C)(C)C | HIV protease (Human immunodeficiency virus type 1 group M subtype B, UniProt P04585) | 3 nM
CCC(CC)NC(=O)[C@H](CC(=O)NC[C@@H](O)[C@H](Cc1ccccc1)NC(=O)[C@@H](NC(=O)OCc1ccccc1)C(C)C)C(C)(C)C | HIV protease (Human immunodeficiency virus type 1 group M subtype B, UniProt P04585) | 13 nM
CCC(CC)NC(=O)C[C@H](C(=O)NC[C@@H](O)[C@H](Cc1ccccc1)NC(=O)[C@@H](NC(=O)OCc1ccccc1)C(C)(C)C)C(C)(C)C | HIV protease (Human immunodeficiency virus type 1 group M subtype B, UniProt P04585) | 29 nM
CCC(CC)NC(=O)C[C@@H](C(=O)NC[C@@H](O)[C@H](Cc1ccccc1)NC(=O)[C@H](CC(N)=O)NC(=O)c1ccnc2ccccc12)C(C)(C)C | HIV protease (Human immunodeficiency virus type 1 group M subtype B, UniProt P04585) | 9 nM

Prompt line: Kindly state the measured IC50 obtained for CCC(CC)NC(=O)C[C@@H](C(=O)NC[C@@H](O)[C@H](Cc1ccccc1)NC(=O)[C@H](CC(N)=O)NC(=O)c1ccc2ncccc2c1)C(C)(C)C with HIV protease (Human immunodeficiency virus type 1 group M subtype B, UniProt P04585).
Response line: 2 nM

* * *

- tested target: HIV protease (Human immunodeficiency virus type 1 group M subtype B)
- Construct: an HIV-encoded enzyme known as HIV protease
- test description: biochemical
- particulars: recombinant HIV protease; decapeptide substrate; HPLC assay; read-out: IC50 (concentration causing 50% inhibition of HIV protease)
- Source text: The procedure is based on the capacity of the test compound to inhibit enzymatic cleavage by HIV protease of a decapeptide (the substrate) having an amino acid sequence which includes a known HIV protease cleavage site of a HIV polyprotein; see H. G. Krausslich et al., Proc. Natl. Acad. Sci. USA, 86, 807 (1989). Anderson, S. Rakhit and C. Yoakim in the European patent application 443 560, published Aug. 28, 1991.
Parameter: IC50. Scope: all listed entries.
Write the value in nM as a bare number.

Solved entries:
molecule | units symbol | recorded measurement
CCC(CC)NC(=O)C[C@@H](C(=O)NC[C@@H](O)[C@H](Cc1ccccc1)NC(=O)[C@@H](NC(=O)OCc1ccccc1)C(C)C)C(C)(C)C | nM | 3
CCC(CC)NC(=O)CC(C(=O)NC[C@@H](O)[C@H](Cc1ccccc1)NC(=O)[C@@H](NC(=O)OCc1ccccc1)C(C)(C)C)C(C)(C)C (stereo partly drawn) | nM | 6

Alright, here's another molecule for you.
Prompt line: For the molecule shown here, CCC(CC)NC(=O)C[C@@H](C(=O)NC[C@@H](O)[C@H](Cc1ccccc1)NC(=O)[C@H](C(C)C)N(C)C(=O)OCc1ccccc1)C(C)(C)C , give the reported IC50.
Response line: 12
